experiment: qHTS assay for small molecule activators of the nuclear factor-kappa B (NF-kB) signaling pathway (AID 651749); conditions: NF-kB-bla ME-180 cells, beta-lactamase FRET ratio, 16 h; hits give high values; note: series mostly up to about 77 µM; % of control where 0% means no effect
Results filed as inconclusive are left out.
Reported metric: activation (%)
Form entry: value (%) — number only.

Which activation is listed for Clc1ccc(-c2cc(Cl)c(Cl)cc2Cl)cc1Cl ?
5.08

What value of measured activation is listed for CCCCC(CC)COC(=O)Cl (stereo unspecified) ?
-0.442

What value of activation has been recorded for this entry: CCCCCCCCCCCCCCC(Br)C(=O)O (stereo unspecified)
5.98

Which activation reading was recorded for the compound CCC(C)(C)c1cc(-n2nc3ccccc3n2)c(O)c(C(C)(C)CC)c1 ?
-0.182

// lookup activation for CCS(=O)(=O)c1cccnc1S(=O)(=O)NC(=O)Nc1nc(OC)cc(OC)n1
-1.37

Bench note: what activation did Brc1ccc(Oc2ccccc2)cc1 show?
-2.79

What value of activation has been reported for the following compound? CCOP(=O)(OCC)Oc1ccc([N+](=O)[O-])cc1
0.546

May I ask what activation has been recorded for c1cc[n+]2c(c1)-c1cccc[n+]1CC2 ?
-2.74

Value lookup for activation; key = CCOC(=O)C(C)OC(=O)c1cc(Oc2ccc(C(F)(F)F)cc2Cl)ccc1[N+](=O)[O-] (stereo unspecified)
0.301

What activation value was documented for this compound, C=C(C)C(=O)OCC(CC)CCCC (stereo unspecified) ?
-0.248

For the compound CC1(C)[C@H](C=C(Cl)Cl)[C@H]1C(=O)O[C@H](C#N)c1ccc(F)c(Oc2ccccc2)c1 , what activation is on record?
4.2

What activation value was documented for this compound, CCOC(=O)C(Cl)Cc1cc(-n2nc(C)n(C(F)F)c2=O)c(F)cc1Cl (stereo unspecified) ?
-0.796

Quick one: activation of Nc1cnn(-c2ccccc2)c(=O)c1Cl ?
-0.283

Entry Cc1cc(Cl)ccc1O[C@H](C)C(=O)O : reported activation = ?
0.599

Value lookup for activation; key = CNC(=O)N(C)c1nc2ccccc2s1
0.981

Consider the compound shown here: CNC(=O)O/N=C/C(C)(C)S(C)(=O)=O What is its recorded activation?
-1.23
